# Tested on: Mice
# procedure.text: Tail flick latency in mice
# Type: in vivo
# run.conditions: Mus musculus, iv, administered intravenously, ED50 calculated at Tmax, significantly increased the tail flick latency, read-out: ED50 (increase of tail flick latency)
# Method: Tail Flick Latency in Mice Mice were trained to sit still in a tail flick apparatus (Ugo Basile, Italy) whilst tail flick latency was measured. The tail was exposed to a focused beam of radiant heat at a point approximately 2.5 cm from the tip. […] Tail flick latency was measured before administration of the test compound and at regular intervals (typically 20, 40 and 60 minutes) after compound administration. The ED50 was calculated at Tmax.
Counter-ions that a name gives are not always drawn.
measured.quantity: ED50

CCN(CCO)Cc1csc(-c2cn(CC3CCOCC3)c3c(Cl)cccc23)n1 [Example 23C] = < 5 µmol/kg
Clc1cccc2c(-c3nsc(CN4CCCC4)n3)cn(CC3CCOCC3)c12 [Example 15B, hydrochloride salt] = < 5 µmol/kg

Here CC(C)N(CCO)Cc1csc(-c2cn(CC3CCOCC3)c3c(Cl)cccc23)n1 [Example 23B] was tested on Mice, and its ED50 came to < 5 µmol/kg
